Sourced from PubChem BioAssay (NCI)

tested on: UO-31 renal; assay: NCI tumour cell line growth inhibition, 48 h
Measurement Name: TGI

Recorded results for 2 compounds are shown here.
[
  {
    "Compound": "CN=c1sc2c(n1C)C(=O)c1ccccc1C2=O",
    "Observed": "19.6 µM"
  },
  {
    "Compound": "C[C@H](C(=O)O)C(=O)NC(=O)N(Cc1ccccc1)N=O",
    "Observed": "> 100 µM"
  }
]

Each compound below has a reported value. Please supply its TGI.
1. C[C@H]1CC[C@@]2(OC1)O[C@H]1C[C@H]3[C@@H]4CC[C@@H]5C[C@@H](OC6OC(CO)C(O)C(O)C6OC6OC(CO)C(O)C(O)C6O)CC[C@]5(C)[C@H]4CC[C@]3(C)[C@H]1[C@@H]2C (stereo partly specified)
2. O=C1c2ccccc2C(=O)c2[nH]cnc21
3. COC(=O)c1cc2c(cc1Cl)Sc1nnc(Nc3ccccc3)n1S2(=O)=O
4. N#Cc1c(NC(=O)C(F)(F)F)sc2c3c(=O)c4ccccc4c(=O)c=3oc3ccccc3c12
5. CCOC(=O)/C(=C/c1ccccn1)C(=O)c1ccccc1
6. CC(C)[C@@H]1CC[C@]2(CO2)[C@@H]2C(=O)OCC(C(=O)O)=C[C@H]21

## Output
1. 3.67 µM
2. > 100 µM
3. 7.56 µM
4. 46.4 µM
5. 30 µM
6. 15.9 µM

Each compound below has a reported value. Please supply its TGI.
1. Cc1cccc(Cn2cc(CO)c3cnccc32)c1
2. C[C@@H](CC(=O)OCc1ccccc1)OC1OC(COC(=O)C(C)(C)C)C(OC(=O)C(C)(C)C)C(OC(=O)C(C)(C)C)C1OC(=O)C(C)(C)C (stereo partly specified)
3. CSC(=O)/C=C1\SS/C(=C\C(=O)SC)S1
4. COc1ccc(OC)c2sc(N3C(=O)/C(=C/c4cccc(Oc5ccccc5)c4)N=C3c3ccccc3)nc12
5. CCOc1cnc(C(O)(c2ccccc2)c2ccccc2)o1

## Output
> 100 µM
> 100 µM
6.89 µM
> 100 µM
> 100 µM

Each compound below has a reported value. Please supply its TGI.
1. O=c1[nH]c2[nH]c(=S)[nH]c(=S)c2[nH]1
2. Cc1ccc(S[C@@](C=O)(NC(=O)OCc2ccccc2)C(F)(F)F)cc1
3. CC1(C)O[C@@H]2[C@@H](COC(C)(C)O[C@H]2C2SCCCS2)O1

## Output
1. > 100 µM
2. 36.6 µM
3. > 100 µM
